# Tested on: UACC-62 melanoma
# methodSummary: NCI tumour cell line growth inhibition, 48 h
Items are presented alongside their recorded TGI.

Consider the reported TGI for these molecules:
# molecule, TGI
records = [
    ("COc1cc(C2S/C(=C/c3ccccc3)C(=O)N2c2cccc(Cl)c2)cc(OC)c1OC (centres undefined)", "> 100 µM"),
    ("COc1cc(C)cc2c1[nH]c1ccccc12", "> 25 µM"),
    ("Cc1ccc(NC(=O)c2cc(S(=O)(=O)Nc3n[nH]c(=O)n3-c3ccccc3)c(S)cc2Cl)cc1", "> 100 µM"),
]

// lookup TGI for CC(C)(C)c1ccc(S(=O)(=O)N2C(c3cccc(C4CC[C@@H](C(=O)O)N4S(=O)(=O)c4ccc(C(C)(C)C)cc4)c3)CC[C@H]2C(=O)O)cc1 (some centres undefined)
> 100 µM

Fill blank: measured TGI of the molecule C=CCCCCCCCC(O)C1C[C@H](O)C(CCCCC)O1 (some centres undefined) is ____.
29.6 µM

Item under review: CC(C)NC(=O)OCc1c(COC(=O)NC(C)C)c(-c2ccc[n+](COC(=O)C(C)C)c2)n2c1CCC2 . Reported TGI?
> 100 µM

What TGI value was documented for this molecule, O=C1C=CC=C[C@@H]2C(C3OCCO3)CC[C@H]12.[C-]#[O+].[C-]#[O+].[C-]#[O+].[Fe] (some centres undefined) ?
> 100 µM

Quick one: TGI for COC(=O)[C@@]12C(=O)CCC(=O)C1C1C(=CC2C)O[C@@H]2OC3(CCCCC3)O[C@H]12 (some centres undefined) ?
> 100 µM

Dear colleague, I am looking for the recorded TGI of the following molecule: O=C(N=Nc1c(O)[nH]c2ccccc12)C(O)(c1ccccc1)c1ccccc1
30.1 µM

----------
# Test system: NCI-H522 lung
# methodSummary: NCI tumour cell line growth inhibition, 48 h
valueKind: TGI

# compound, targetOrTestSystem, TGI
rows = [
    ("COc1ccn(CC(=O)c2cc3ccccc3[nH]2)c(=O)n1", "NCI-H522 lung", "> 100 µM"),
    ("O=c1[nH]cnc2c1ccn2C1OC(CO)C(O)C1O (stereo unspecified)", "NCI-H522 lung", "34.7 µM"),
    ("CCN(CC)c1ccc(/C=N/NC(=O)c2ccc(S(C)(=O)=O)cc2)c(O)c1", "NCI-H522 lung", "> 100 µM"),
    ("COc1ccc(N2C(Cl)C(=O)C2c2c[nH]c3ccccc23)cc1 (stereo unspecified)", "NCI-H522 lung", "> 100 µM"),
    ("c1ccc(Cc2cc(-c3ccccc3)n[nH]2)cc1", "NCI-H522 lung", "33.2 µM"),
]

Turning now to a further compound:
Quick one: TGI for CN(C)CCn1cnc2sc3ccccc3c21 ?
> 100 µM

----------
# System: K-562 leukemia
# methodSummary: NCI tumour cell line growth inhibition, 48 h
TGI values for the compounds below.

# compound, result
records = [
    ("COc1c2c(cc3occ(-c4ccc(CC=C(C)C)cc4)c(=O)c13)OC(C)(C)C=C2", "> 100 µM"),
    ("COc1ccc2cc(C(=O)CCC(=O)O)ccc2c1", "> 100 µM"),
    ("COc1ccc(NC(=O)Nc2ccccc2CNc2nc(Nc3ccc(OCCN4CCCC4)cc3)ncc2Cl)cc1", "> 50 µM"),
    ("O=[N+]([O-])c1ccc(OCc2nnc(CCCCCCCCc3nnc(COc4ccc([N+](=O)[O-])cc4)o3)o2)cc1", "> 100 µM"),
    ("CC1(C(=O)Nc2ccc3cc4ccccc4cc3c2)CC2(C)CC(C)(C1)C(O)NC2=O (configuration not stated)", "> 100 µM"),
]

Lab request: please report TGI under test system K-562 leukemia for Cc1ccc(NC(=O)/C=C/c2ccccc2)c(C)c1
> 100 µM

Provide value of TGI for this record tested with K-562 leukemia: N#C/C(=C/NC(=S)NCc1ccccc1)C(N)=O
> 100 µM

What reported TGI corresponds to NC(N)=N/N=C\c1ccc(C2CCNCC2)cc1 on K-562 leukemia?
> 100 µM

// map COc1ccc(C(=O)O)c(Br)c1OCc1ccccc1 to recorded TGI (system: K-562 leukemia)
> 100 µM

K-562 leukemia / TGI / COC(=O)c1cc(C)n(CN(Cn2nc(C(=O)OC)cc2C)c2ccccc2)n1 : value?
60.4 µM

----------
# Tested on: CCRF-CEM leukemia
# methodSummary: NCI tumour cell line growth inhibition, 48 h; in the data active = GI50 below about 0.43 µM; inactive = the rest
Give one outcome, nothing more. List: true for active, false for inactive

The following molecules have reported results that may help.
# molecule, group
rows = [
    ("Oc1c(I)cc(I)cc1CNCCN(Cc1ccccn1)Cc1ccccn1", "false"),
    ("COc1cccc2c1C(=O)c1c(O)c3c(c(O)c1C2=O)C[C@@](O)(C(C)=O)C[C@@H]3O[C@H]1C[C@H](N)[C@H](O)[C@H](C)O1", "true"),
    ("C[C@H]1CCC/C=C/[C@@H]2C[C@H](O)C[C@H]2[C@H](O)[C@@H](S(=O)C[C@@H](N)C(=O)O)CC(=O)O1 (stereo partly specified)", "true"),
]

Outcome? Clc1ccc(Nc2nnc(CNc3ccccc3)c3ccccc23)cc1
false

Hi, do you know how COc1cc(-c2cc(/C=C3\C(=O)Nc4cc(Cl)ccc43)[nH]n2)cc(OC)c1OC came out in this test?
false

Recorded test outcome, item COc1ccc(NC(=O)Nc2ccccc2CNc2nc(Nc3ccc(OCCN4CCCC4)cc3)ncc2Cl)cc1
false

Short answer needed: outcome of this test for O=C1NC(=NCc2ccccc2Br)S/C1=C\c1ccc2ncccc2c1 ?
false

How did this test come out for C/C(=C1\SC(=NCc2cccs2)NC1=O)c1ccc2ncccc2c1 ?
false

Just curious, what result did [C-]#[O+].[C-]#[O+].[C-]#[O+].[C-]#[O+].[O-]C(c1ccccc1[PH+]1OC(C(F)(F)F)(C(F)(F)F)c2ccccc21)(C(F)(F)F)C(F)(F)F.[Re] (stereo unspecified) get here?
false

Call for entry O=C1C(Br)=CC2C1C1C3CCC3C2(Br)C12OCCO2 (stereo unspecified) :
false

Called result for O=C1Nc2ccccc2/C1=C\c1c[nH]c2ccc(Br)cc12
false

----------
# Tested on: IGROV1 ovarian
# methodSummary: NCI tumour cell line growth inhibition, 48 h
Please use Criterion met whenever TGI is not below 6 µM, and Criterion not met whenever it is.

Recorded results for 4 compounds are shown here.
# compound, group
data = [
    ("CC(C)(C)C1=NC(=P(c2ccccc2)(c2ccccc2)c2ccccc2)C(=O)O1", "Criterion met"),
    ("Brc1ccc(-c2[nH]c3ccccc3c2N=Nc2ccccc2)cc1", "Criterion met"),
    ("CCOP(=O)(OCC)C1CC(C)OC1=O (centres undefined)", "Criterion met"),
    ("Cc1ncc(C(=O)Nc2ccc(CN3CCN(C)CC3)c(C(F)(F)F)c2)cc1C#Cc1c(N)ncc2ccc(F)cc12", "Criterion met"),
]

Decide: TGI of Oc1c(I)cc(I)cc1CNCCN(Cc1ccccn1)Cc1ccccn1 >= 6 µM?
Criterion not met

Confirm if TGI reported for the compound COc1cccc2c1C(=O)c1c(O)c3c(c(O)c1C2=O)C[C@@](O)(C(C)=O)C[C@@H]3O[C@H]1C[C@H](N)[C@H](O)[C@H](C)O1 is 6 µM or above.
Criterion not met

Could you tell me if the measured TGI of C[C@H]1CCC/C=C/[C@@H]2C[C@H](O)C[C@H]2[C@H](O)[C@@H](S(=O)C[C@@H](N)C(=O)O)CC(=O)O1 (some centres undefined) reaches 6 µM or more?
Criterion met

Answer whether TGI of CC(C)/C=N\N1C(N)=C(C#N)C(C#N)(C#N)C1C(C)C (centres undefined) is greater than or equal to 6 µM.
Criterion met

Determine whether measured TGI meets or exceeds 6 µM for Cn1cc(C2=C(Oc3ccccc3)C(=O)NC2=O)c2ccccc21
Criterion met

----------
# Test system: SNB-19 CNS
# methodSummary: NCI tumour cell line growth inhibition, 48 h
Readings of TGI for the listed molecules

Observe how each entry below is paired with its result.
# molecule, TGI
records = [
    ("O=C(N=Nc1c(O)[nH]c2ccccc12)C(O)(c1ccccc1)c1ccccc1", "34.2 µM"),
    ("O=C1NC(=NCc2ccccc2Br)S/C1=C\\c1ccc2ncccc2c1", "> 25 µM"),
    ("Cc1ccc(NC(=O)/C=C/c2ccccc2)c(C)c1", "> 100 µM"),
    ("O=c1[nH]cnc2c1ccn2C1OC(CO)C(O)C1O (stereo not drawn)", "> 100 µM"),
    ("CC(C)(C)c1ccc(S(=O)(=O)N2C(c3cccc(C4CC[C@@H](C(=O)O)N4S(=O)(=O)c4ccc(C(C)(C)C)cc4)c3)CC[C@H]2C(=O)O)cc1 (stereo partly drawn)", "> 100 µM"),
    ("CC(C)(C)C1=Nc2c(Br)cc(C(C)(C)C)cc2C(C(F)(F)F)(C(F)(F)F)O1", "> 100 µM"),
    ("O=C(O)COc1ccc(C(=O)/C(SS/C(C(=O)c2ccc(OCC(=O)O)c(Cl)c2Cl)=C2\\C=C(c3ccc(F)cc3)SS2)=C2/C=C(c3ccc(F)cc3)SS2)c(Cl)c1Cl", "53.7 µM"),
    ("COc1ccc(C(=O)NCCC2=CCCCC2)cc1", "> 100 µM"),
    ("Cc1cc(Nc2nc(-c3ccc(F)cc3)nc3ccccc23)n[nH]1", "> 93.9 µM"),
    ("CSc1nc(N)cc(Oc2ccc(-c3nc(Nc4cccc(C(F)(F)F)c4)n[nH]3)cc2)n1", "14.9 µM"),
]

Entry [C-]#[O+].[C-]#[O+].[C-]#[O+].[C-]#[O+].[O-]C(c1ccccc1[PH+]1OC(C(F)(F)F)(C(F)(F)F)c2ccccc21)(C(F)(F)F)C(F)(F)F.[Re] (stereo not drawn) , system SNB-19 CNS: what TGI was measured?
33.5 µM

Give SNB-19 CNS TGI for COc1cccc2c1C(=O)c1c(O)c3c(c(O)c1C2=O)C[C@@](O)(C(C)=O)C[C@@H]3O[C@H]1C[C@H](N)[C@H](O)[C@H](C)O1
1.35 µM

Test system SNB-19 CNS; read-out TGI; what value for CS(=O)(=O)CCN(CC#N)Cc1ccc(-c2ccc3ncnc(Nc4ccc(OCc5cccc(F)c5)c(Cl)c4)c3c2)o1 ?
> 25 µM

Find the measured TGI: item CC(=O)OCc1cnc2c3c(nc4ccccc4c13)C(=O)c1cccnc1-2 , target or system SNB-19 CNS.
0.959 µM

// map CCCc1cn2c(/C=N/N=C(N)N)c(-c3c(OC)ccc(OC)c3[N+](=O)[O-])nc2s1 to recorded TGI (system: SNB-19 CNS)
49.9 µM

// map Cc1cc(S(=O)(=O)NC2=NCC(C)NN2)c(S)cc1Cl (stereo not drawn) to recorded TGI (system: SNB-19 CNS)
> 100 µM

Return TGI measured with SNB-19 CNS given this molecule: N#C/C(=C/NC(=S)NCc1ccccc1)C(N)=O
> 100 µM

State its TGI on SNB-19 CNS: COC(=O)Cc1c(C(=O)CC(C)(C)n2cnc(CCN3C(=O)CCC3=O)c2)[nH]c2ccccc12
> 100 µM
